Assay: Selectivity index, ratio of CC50 for human MRC5 cells to EC50 for human cytomegalovirus infected in human MRC5 cells
Type: toxicity, cell-based
Conditions: MRC5 cells infected with human cytomegalovirus, read-out: Selectivity Index

| MOLECULE | selectivity ratio |
| --- | --- |
| Nc1nc(O)c2ncn(COC(CO)CO)c2n1 [GANCICLOVIR] | > 202 |

---

Test system: Human betaherpesvirus 5
Assay: Antiviral activity against 0.003 MOI human cytomegalovirus AD169 infected in NHDF after 7 days by GFP-based fluorescent reduction assay
Type: functional, organism-based
Conditions: Human betaherpesvirus 5, AD169, NHDF, 168 h
// reported EC50 for each item listed

| MOLECULE | UNIT_SYMBOL | EC50 |
| --- | --- | --- |
| Nc1nc2c(ncn2COC(CO)CO)c(=O)[nH]1 | nM | 990 |
| COc1cccc(N2CCN(C3=Nc4c(F)cccc4[C@H](CC(=O)O)N3c3cc(C(F)(F)F)ccc3OC)CC2)c1 | nM | 1.3 |

---

Assay: Cytotoxicity against HLF infected with human cytomegalovirus after 7 days by alamar blue assay
Details: HLF cells infected with human cytomegalovirus

| MOLECULE | CC50 at 168 h |
| --- | --- |
| Nc1nc(O)c2ncn(COC(CO)CO)c2n1 | > 333 µM |

---

System: Human betaherpesvirus 5
Test: Antiviral activity against 0.03 MOI human cytomegalovirus AD169 infected in NHDF after 7 days by GFP-based fluorescent reduction assay
Type: functional, organism-based
Settings: Human betaherpesvirus 5, AD169, NHDF, 168 h
pEC50: −log10 of the molar value.
METRIC_NAME: pEC50

| MOLECULE | ASSAYED_SYSTEM | NUMERIC_VALUE |
| --- | --- | --- |
| COc1cccc(N2CCN(C3=Nc4c(F)cccc4[C@H](CC(=O)O)N3c3cc(C(F)(F)F)ccc3OC)CC2)c1 [LETERMOVIR] | Human betaherpesvirus 5 | 8.54 |
| Nc1nc2c(ncn2COC(CO)CO)c(=O)[nH]1 [GANCICLOVIR] | Human betaherpesvirus 5 | 5.76 |

---

Test system: Human betaherpesvirus 5
Assay: Antiviral activity against ganciclovir-resistant human cytomegalovirus isolate 1947R infected in NHDF assessed as inhibition of virus-induced cytopathic effect after 6 to 7 days by giemsa staining
Assay type: functional, organism-based
Settings: Human betaherpesvirus 5, isolate 1947R
pEC50: −log10 of the molar value.
METRIC_NAME: pEC50

| MOLECULE | NUMERIC_VALUE |
| --- | --- |
| Nc1nc2c(ncn2COC(CO)CO)c(=O)[nH]1 | 4.82 |
| COc1cccc(N2CCN(C3=Nc4c(F)cccc4[C@H](CC(=O)O)N3c3cc(C(F)(F)F)ccc3OC)CC2)c1 | 8.64 |

---

System: Human betaherpesvirus 5
Assay: Antiviral activity against human cytomegalovirus infected in NHDF after 7 days by GFP-based fluorescent reduction assay
Format: functional, organism-based
Conditions: Human betaherpesvirus 5, NHDF, 168 h

| MOLECULE | EC50 |
| --- | --- |
| Nc1nc2c(ncn2COC(CO)CO)c(=O)[nH]1 | 1.91 µM |
| COc1cccc(N2CCN(C3=Nc4c(F)cccc4[C@H](CC(=O)O)N3c3cc(C(F)(F)F)ccc3OC)CC2)c1 | 0.0035 µM |

---

Assay: Cytotoxicity against HEL299 cells infected with human cytomegalovirus after 7 days by alamar blue assay
Format: cell-based, HEL 299

| MOLECULE | CC50 at 168 h |
| --- | --- |
| Nc1nc(O)c2ncn(COC(CO)CO)c2n1 [GANCICLOVIR] | > 333 µM |
